Assay: BSK_3C_uPAR: BioMAP Diversity Plus: 3C Assay for Urokinase-type plasminogen activator receptor (uPAR) Biomarker Activity (AID 2282998)
Details: BioMAP 3C HUVEC, uPAR biomarker ELISA; actives raise or lower the signal
Calls of active or inactive are those of the source. How the source made its calls: active means hit-call score of the fitted dose curve at least 0.9, where 1 is the maximum; inactive means score below 0.9.
Assay endpoint: AC50

1. O=C(O)C(F)(F)C(F)(F)C(F)(F)C(F)(F)C(F)(F)C(F)(F)F = inactive
2. CCC(C)(C)c1ccc(O)c(C(C)(C)CC)c1 = 8.8 µM (active)
3. CC(C)c1ccc(CO)cc1 = inactive

----------
Biological target: Luciferin 4-monooxygenase (Photinus pyralis) (UniProt P08659)
Sequence (P08659 whole entry, looked up): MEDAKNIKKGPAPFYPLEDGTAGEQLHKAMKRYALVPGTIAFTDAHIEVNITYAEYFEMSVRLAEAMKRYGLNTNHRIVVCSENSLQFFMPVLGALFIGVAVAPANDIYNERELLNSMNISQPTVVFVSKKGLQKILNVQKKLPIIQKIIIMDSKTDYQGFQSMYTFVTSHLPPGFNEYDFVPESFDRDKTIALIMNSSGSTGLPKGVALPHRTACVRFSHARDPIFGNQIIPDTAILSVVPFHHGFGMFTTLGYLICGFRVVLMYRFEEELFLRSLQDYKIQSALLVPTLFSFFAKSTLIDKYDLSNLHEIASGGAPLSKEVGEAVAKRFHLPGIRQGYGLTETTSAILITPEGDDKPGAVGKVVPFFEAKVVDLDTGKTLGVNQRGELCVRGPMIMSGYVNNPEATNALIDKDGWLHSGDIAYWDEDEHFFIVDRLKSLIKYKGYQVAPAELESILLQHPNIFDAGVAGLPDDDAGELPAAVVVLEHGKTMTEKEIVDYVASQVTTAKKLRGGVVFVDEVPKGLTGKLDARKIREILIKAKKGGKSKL
Assay: CCTE_Simmons_QuantiLum_inhib_2: CCTE's Firefly Luciferase Inhibition Assay, Simmons Lab (AID 2283767)
Records with an inconclusive call do not appear. The source made the active and inactive calls. How the source made its calls: active means hit-call score of the fitted dose curve at least 0.9, where 1 is the maximum; inconclusive means response in the unintended direction; inactive means score below 0.9.
Classes used: T for active, F for inactive

1) CCCCCCCCSC(=O)Oc1cc(Cl)nnc1-c1ccccc1 = T
2) O=C(Nc1ccc2[nH]ccc2c1)c1cc2cc(F)ccc2n1Cc1cccc(F)c1 = T
3) OCc1ccco1 = F
4) COP(=O)(OC)O/C(=C\Cl)c1cc(Cl)c(Cl)cc1Cl = F
5) NNC(=S)NN = F

----------
Test: ACEA_AR_antagonist_AUC_viability: ACEA Biosciences xCELLigence Real-Time Cell Analysis on Androgen Receptor Antagonism for Viability (AID 2283776);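 further: 22Rv1 human prostate cancer cells growing on impedance electrode plates; area under impedance growth curve at 80 h after dosing as viability; hits lower the growth signal relative to DMSO meaning cytotoxicity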
Records with an inconclusive call do not appear. Calls of active or inactive are those of the source. Rule for the calls: active = hit-call score of the fitted dose curve at least 0.9, where 1 is the maximum; inconclusive = response in the unintended direction; inactive = score below 0.9.
Classes used: true (active), false (inactive)

1. O=C(Cc1ccccc1)c1ccccc1 = false
2. O=[N+]([O-])c1ccc(O)c([N+](=O)[O-])c1 = true
3. CNC = false
4. CCN1CCC2(CC1)COc1cc3c(cc12)N(C(=O)c1ccc(-c2ccc(-c4nnc(C)o4)cc2C)cc1)CC3 = true
5. CC1(C)Cc2cccc(O)c2O1 = false

----------
Test: ATG_MRE_CIS: Attagene CIS-FACTORIAL HepG2 Assay for human Metal Responsive Element (MRE) (AID 2282954)
Conditions: HepG2 MRE cis-reporter transcription, Attagene multiplex; actives raise or lower the signal
Calls of active or inactive are those of the source. The calls were made as follows: active = hit-call score of the fitted dose curve at least 0.9, where 1 is the maximum; inactive = score below 0.9.
Classes used: yes (1) = active, no (0) = inactive

1. O=S(=O)(c1ccc(Cl)cc1)c1ccc(Cl)cc1 = yes (1)
2. Cc1cc(Cl)ccc1O[C@H](C)C(=O)O = no (0)
3. CC(C)(OO)c1ccccc1 = no (0)
4. CCOC(=O)Nc1cccc(OC(=O)Nc2ccccc2)c1 = no (0)
5. COP(=S)(OC)Oc1c(Cl)cc(C)cc1Cl = yes (1)
6. ClCc1ccccn1 = no (0)
7. CCC1(c2ccc(N)cc2)CCC(=O)NC1=O (stereo not given) = no (0)
8. CC1(C)CCC(Cc2ccc(Cl)cc2)C1(O)Cn1cncn1 (stereo not given) = no (0)
9. Cl/C=C/Cl = no (0)
10. CC(C)(C)CC(C)(C)c1ccc(O)cc1 = no (0)
11. CC(C)C1CCC(Cc2ccc(Cl)cc2)C1(O)Cn1cncn1 (stereo not given) = yes (1)
12. COP(=S)(OC)Oc1cc(Cl)c(Cl)cc1Cl = no (0)
13. CCOP(=S)(OCC)Oc1nc(Cl)c(Cl)cc1Cl = yes (1)
14. O=CC=O = no (0)
15. CCOP(=S)(OCC)SCSP(=S)(OCC)OCC = no (0)
16. CCOC(=O)CP(=O)(OCC)OCC = no (0)
17. CCCCCCCCc1ccc(O)cc1 = no (0)
18. O=c1[nH]c(=O)[nH]c(=O)[nH]1 = no (0)
19. Cn1sc(Cl)cc1=O = no (0)
20. COP(=S)(OC)Oc1ccc(Sc2ccc(OP(=S)(OC)OC)cc2)cc1 = yes (1)

----------
Read-out: Intercellular Adhesion Molecule 1 (ICAM1), ICAM1 (gene 3383)
Assay: LTEA_HepaRG_ICAM1: Life Technologies and Expression Analysis (LTEA) Assay for Intercellular Adhesion Molecule 1 (ICAM1) using HepaRG (AID 2283507)
Conditions: mRNA level, 48 h; actives raise or lower the signal
Activity calls are given as the source filed them. How the source made its calls: active means hit-call score of the fitted dose curve at least 0.9, where 1 is the maximum; inactive means score below 0.9.
Classes used: YES (active), NO (inactive)

1. C=C(C)C(=O)[O][Sn]([CH2]CCC)([CH2]CCC)[CH2]CCC = YES
2. CC(C)(OO)c1ccccc1 = NO
3. O=C1C2(Cl)C3(Cl)C4(Cl)C(Cl)(Cl)C5(Cl)C3(Cl)C1(Cl)C5(Cl)C24Cl (centres undefined) = YES
4. C=CC(=O)OCCCCCC(C)C = NO

----------
Test system: Thyroperoxidase (TPO), gene 54314
Assay: CCTE_Simmons_AUR_rTPO: CCTE's Amplex UltraRed Assay for Thyroperoxidase (TPO) Inhibition, Simmons Lab (AID 2283662)
Active and inactive are the calls of the source. The calls were made as follows: active = hit-call score of the fitted dose curve at least 0.9, where 1 is the maximum; inconclusive = response in the unintended direction; inactive = score below 0.9.
Classes used: class 1 = active, class 0 = inactive

1. O=C(Nc1ccc2[nH]ccc2c1)c1cc2cc(F)ccc2n1Cc1cccc(F)c1 = class 1
2. CC(C)(C)CC(C)(C)c1ccc(O)cc1 = class 1
3. NNC(=S)NN = class 1
4. CC(C)(C)c1cc(O)ccc1O = class 1
5. COP(=O)(OC)O/C(=C\Cl)c1cc(Cl)c(Cl)cc1Cl = class 1
6. CCC(C)(C)c1ccc(O)c(C(C)(C)CC)c1 = class 1
7. Clc1ccc(COC(Cn2ccnc2)c2ccc(Cl)cc2Cl)cc1 (stereo unspecified) = class 1
8. CC(C)c1cccc(C(C)C)c1O = class 1
9. Cc1ccc(N)cc1Cl = class 1
10. C[C@H]1CCCC(=O)CCC/C=C/c2cc(O)cc(O)c2C(=O)O1 = class 1
11. Clc1ccc(C2(Cn3cncn3)CC(Br)CO2)c(Cl)c1 (stereo unspecified) = class 0

----------
Target: Cellular tumor antigen p53 (Homo sapiens) (UniProt P04637)
Sequence (P04637 whole entry, looked up): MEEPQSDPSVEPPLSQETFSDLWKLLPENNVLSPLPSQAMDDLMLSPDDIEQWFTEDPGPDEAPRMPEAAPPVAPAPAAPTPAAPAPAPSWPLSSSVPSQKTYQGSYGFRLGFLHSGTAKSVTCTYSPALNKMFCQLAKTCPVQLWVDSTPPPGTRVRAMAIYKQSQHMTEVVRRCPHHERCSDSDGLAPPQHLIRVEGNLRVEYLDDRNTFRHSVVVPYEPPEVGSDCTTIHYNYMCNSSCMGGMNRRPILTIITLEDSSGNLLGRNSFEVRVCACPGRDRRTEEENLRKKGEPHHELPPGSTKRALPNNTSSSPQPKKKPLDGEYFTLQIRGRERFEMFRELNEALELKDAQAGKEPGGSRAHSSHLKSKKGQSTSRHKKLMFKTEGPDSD
Assay: TOX21_p53_BLA_p2_ratio: Tox21 HCT-116 p53 Agonism Beta-lactamase Assay, Ratio, Phase 2 (AID 2283592)
Inconclusive results are not listed. The source made the active and inactive calls. How the source made its calls: active means hit-call score of the fitted dose curve at least 0.9, where 1 is the maximum; inconclusive means response in the unintended direction; inactive means score below 0.9.
Classes used: T (active), F (inactive)

1. CC(C)c1cccc(C(C)C)c1O = F
2. NN=C(N)N = F
3. Cl/C=C/Cl = F
4. O=C(Nc1ccc2[nH]ccc2c1)c1cc2cc(F)ccc2n1Cc1cccc(F)c1 = T
5. CCC(=O)c1ccccc1 = F
6. NC(=O)O = F
7. COP(=O)(OC)OC = F
8. COc1cc(OC)nc(NC(=O)NS(=O)(=O)c2ncccc2C(=O)N(C)C)n1 = F
9. Clc1nc(Cl)nc(Cl)n1 = F
10. N#CN=C(N)N = F
11. CCCCCCCCCl = F
12. O=C(O)C(Cl)(Cl)Cl = F
13. COc1ccc(C=O)cc1 = F
14. COc1ccc(C=O)cc1OC = F
15. O=[N+]([O-])c1ccc2c3c(cccc13)CC2 = F

----------
Read-out: Tissue Factor, F3 (gene 2152)
Test: BSK_CASM3C_TissueFactor: BioMAP Diversity Plus: CASM3C Assay for Tissue Factor Biomarker Activity (AID 2283052);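 further: cell surface tissue factor protein level read by ELISA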
Conditions: primary human coronary artery smooth muscle cells; actives raise or lower the signal
Active and inactive are the calls of the source. How the source made its calls: active means hit-call score of the fitted dose curve at least 0.9, where 1 is the maximum; inactive means score below 0.9.
Classes used: Y (active), N (inactive)

1) CCCCCCCCc1ccc(O)cc1 = Y
2) CC(C)(c1ccccc1)c1ccc(O)c(C(C)(C)c2ccccc2)c1 = Y
3) Oc1ccc(-c2ccccc2)cc1 = Y
4) CCOP(=S)(OCC)SCSP(=S)(OCC)OCC = N
5) CCOP(=S)(OCC)Oc1ccc(S(C)=O)cc1 (stereo unspecified) = N
6) CCC(C)(C)c1ccc(O)c(C(C)(C)CC)c1 = Y

----------
Read-out: Plasminogen activator inhibitor-1 (PAI1), SERPINE1 (gene 5054)
Assay: BSK_MyoF_PAI1: BioMAP Diversity Plus: MyoF Assay for Plasminogen activator inhibitor-1 (PAI1) Biomarker Activity (AID 2284256);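 further: PAI-1 protein level measured by ELISA in fibroblast cultures; PAI-1 read 24 h after compound addition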
Conditions: primary human lung fibroblasts
Active and inactive are the calls of the source. How the source made its calls: active means hit-call score of the fitted dose curve at least 0.9, where 1 is the maximum; inactive means score below 0.9.
Assay endpoint: outcome

1) COP(=S)(OC)Oc1c(Cl)cc(C)cc1Cl = inactive
2) CC1(C)Cc2cccc(O)c2O1 = inactive
3) COP(=S)(OC)Oc1ccc(S(=O)(=O)N(C)C)cc1 = inactive

----------
Read-out: Fatty acid synthase (Homo sapiens) (UniProt P49327)
Sequence (P49327 whole entry, looked up): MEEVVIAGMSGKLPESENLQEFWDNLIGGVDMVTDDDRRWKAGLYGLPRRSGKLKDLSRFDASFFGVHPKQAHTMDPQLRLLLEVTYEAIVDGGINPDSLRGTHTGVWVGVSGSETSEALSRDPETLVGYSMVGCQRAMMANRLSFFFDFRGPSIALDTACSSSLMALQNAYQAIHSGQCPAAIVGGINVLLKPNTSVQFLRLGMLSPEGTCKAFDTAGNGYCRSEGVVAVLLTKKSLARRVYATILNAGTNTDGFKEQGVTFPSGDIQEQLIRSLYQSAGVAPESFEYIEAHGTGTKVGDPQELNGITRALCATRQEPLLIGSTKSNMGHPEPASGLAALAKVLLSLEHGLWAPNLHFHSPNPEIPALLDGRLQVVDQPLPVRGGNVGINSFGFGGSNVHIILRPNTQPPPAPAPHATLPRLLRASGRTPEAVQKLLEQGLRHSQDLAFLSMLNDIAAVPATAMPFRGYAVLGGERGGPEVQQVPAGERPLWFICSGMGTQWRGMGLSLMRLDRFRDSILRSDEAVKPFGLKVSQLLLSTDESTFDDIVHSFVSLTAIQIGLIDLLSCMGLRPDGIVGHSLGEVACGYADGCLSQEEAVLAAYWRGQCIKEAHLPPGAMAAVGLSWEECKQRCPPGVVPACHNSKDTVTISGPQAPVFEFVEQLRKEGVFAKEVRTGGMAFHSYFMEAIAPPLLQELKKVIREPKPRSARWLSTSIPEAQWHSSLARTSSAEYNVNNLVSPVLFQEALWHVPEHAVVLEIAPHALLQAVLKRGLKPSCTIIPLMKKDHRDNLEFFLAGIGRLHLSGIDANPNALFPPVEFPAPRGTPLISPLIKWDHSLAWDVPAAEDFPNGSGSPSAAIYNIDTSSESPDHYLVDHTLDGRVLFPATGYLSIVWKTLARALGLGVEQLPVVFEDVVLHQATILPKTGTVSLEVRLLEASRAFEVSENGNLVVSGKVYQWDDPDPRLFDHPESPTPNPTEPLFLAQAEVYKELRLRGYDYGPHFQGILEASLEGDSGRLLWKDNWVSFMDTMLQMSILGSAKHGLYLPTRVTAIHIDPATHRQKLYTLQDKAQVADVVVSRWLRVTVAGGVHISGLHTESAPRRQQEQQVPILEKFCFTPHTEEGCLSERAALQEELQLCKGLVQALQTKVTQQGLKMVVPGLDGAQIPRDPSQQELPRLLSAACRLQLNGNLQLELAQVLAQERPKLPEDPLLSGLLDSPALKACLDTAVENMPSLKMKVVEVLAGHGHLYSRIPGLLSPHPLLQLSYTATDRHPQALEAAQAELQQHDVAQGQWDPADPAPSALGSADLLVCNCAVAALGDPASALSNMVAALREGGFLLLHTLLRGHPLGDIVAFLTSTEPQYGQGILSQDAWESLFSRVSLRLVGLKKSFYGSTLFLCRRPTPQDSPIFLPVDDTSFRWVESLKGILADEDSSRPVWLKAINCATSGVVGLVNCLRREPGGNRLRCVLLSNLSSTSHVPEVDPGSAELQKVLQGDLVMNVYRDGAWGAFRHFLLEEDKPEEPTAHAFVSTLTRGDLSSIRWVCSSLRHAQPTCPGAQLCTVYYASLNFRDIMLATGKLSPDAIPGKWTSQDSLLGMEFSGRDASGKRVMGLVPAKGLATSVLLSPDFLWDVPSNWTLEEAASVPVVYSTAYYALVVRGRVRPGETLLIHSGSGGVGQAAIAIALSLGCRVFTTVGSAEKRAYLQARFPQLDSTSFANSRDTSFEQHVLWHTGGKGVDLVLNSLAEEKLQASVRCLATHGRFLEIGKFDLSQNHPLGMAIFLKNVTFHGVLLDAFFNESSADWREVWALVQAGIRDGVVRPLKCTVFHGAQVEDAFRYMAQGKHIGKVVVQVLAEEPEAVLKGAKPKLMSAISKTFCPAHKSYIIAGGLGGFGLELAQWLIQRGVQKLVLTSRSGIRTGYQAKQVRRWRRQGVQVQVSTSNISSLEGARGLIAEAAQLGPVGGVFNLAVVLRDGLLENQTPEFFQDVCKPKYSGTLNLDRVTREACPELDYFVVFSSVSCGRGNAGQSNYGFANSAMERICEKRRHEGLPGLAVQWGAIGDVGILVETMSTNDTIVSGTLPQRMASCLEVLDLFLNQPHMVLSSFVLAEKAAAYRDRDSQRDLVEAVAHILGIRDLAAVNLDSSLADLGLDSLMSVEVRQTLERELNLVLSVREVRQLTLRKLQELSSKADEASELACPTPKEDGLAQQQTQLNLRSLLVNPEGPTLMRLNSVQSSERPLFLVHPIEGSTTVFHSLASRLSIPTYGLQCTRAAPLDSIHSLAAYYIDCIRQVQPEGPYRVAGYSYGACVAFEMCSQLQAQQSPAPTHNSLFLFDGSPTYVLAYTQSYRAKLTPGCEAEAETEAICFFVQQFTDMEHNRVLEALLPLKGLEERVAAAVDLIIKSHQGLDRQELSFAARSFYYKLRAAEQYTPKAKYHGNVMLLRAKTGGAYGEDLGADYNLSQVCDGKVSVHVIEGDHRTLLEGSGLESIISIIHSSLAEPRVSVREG
Test: LTEA_HepaRG_FASN: Life Technologies and Expression Analysis (LTEA) Assay for Fatty Acid Synthase (FASN) using HepaRG (AID 2283448)
Conditions: mRNA level, 48 h; actives raise or lower the signal
Calls of active or inactive are those of the source. How the source made its calls: active means hit-call score of the fitted dose curve at least 0.9, where 1 is the maximum; inactive means score below 0.9.
Classes used: true (1) (active), false (0) (inactive)

1. O=[N+]([O-])c1ccc(O)c([N+](=O)[O-])c1 = true (1)
2. ClCC(Cl)CCl = false (0)
3. O=C1C2(Cl)C3(Cl)C4(Cl)C(Cl)(Cl)C5(Cl)C3(Cl)C1(Cl)C5(Cl)C24Cl (stereo not drawn) = true (1)
4. C=CC(=O)OCCCCCC(C)C = false (0)
5. CN(C)N=O = false (0)
6. CCN1CCC2(CC1)COc1cc3c(cc12)N(C(=O)c1ccc(-c2ccc(-c4nnc(C)o4)cc2C)cc1)CC3 = true (1)
7. CCC(=O)C(CC(C)N(C)C)(c1ccccc1)c1ccccc1 (stereo not drawn) = false (0)
8. CC(C)(OO)c1ccccc1 = false (0)
